tested on: MOLM14; experiment: cell viability relative to vehicle control; higher = less cytotoxic; conditions: 10 µM; SRSF2 genotype: SRSF2 P95H/wt;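 further: after 48 h exposure read by CellTiter-Glo luminescence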
Structures can show the parent of a compound that is named as a salt.
readout.kind: cell viability (%)
Answers are plain numbers, in %.

{"compound": "O=c1ccc2cc(O)ccc2o1 [6-Hydroxycoumarin]", "subject.of.test": "MOLM14", "readout.number": 104}
{"compound": "CC(Nc1nc(N2CCCC2)nc2ccccc12)c1ccccc1 (stereo not drawn)", "subject.of.test": "MOLM14", "readout.number": 51.2}
{"compound": "CO[C@H]1/C=C/O[C@@]2(C)Oc3c(C)c(O)c4c(O)c(c(/C=N/N5CCN(C6CCCC6)CC5)c(O)c4c3C2=O)NC(=O)/C(C)=C\\C=C\\[C@H](C)[C@H](O)[C@@H](C)[C@@H](O)[C@@H](C)[C@H](OC(C)=O)[C@@H]1C", "subject.of.test": "MOLM14", "readout.number": 56.2}
{"compound": "O=C(O)c1ccc(-n2nc(-c3ccccc3O)nc2-c2ccccc2O)cc1 [Deferasirox (Exjade)]", "subject.of.test": "MOLM14", "readout.number": 83.5}
{"compound": "COc1ccc(-c2nc3cc(C4=NNC(=O)CC4C)ccc3[nH]2)cc1 (stereo not drawn)", "subject.of.test": "MOLM14", "readout.number": 68}

Quick one: give me cell viability for each item below, same order please.
1. Nc1ncnc2c1ncn2C(C=O)OC(C=O)CO (stereo not drawn)
2. O=C(Nc1cccc(Cl)c1)Nc1ncc(CCNc2ncnc3ccsc23)s1 [SNS-314 Mesylate]
3. CCCc1cc(=O)[nH]c(=S)[nH]1

1: 25.3; 2: 18.7; 3: 100
